Biological target: Urokinase from human urine (Homo sapiens, UniProt P00749)
Experiment: Enzymatic assay, urokinase
Where a SMILES comes first, the peptide text is derived from it.
readout name: Urokinase at 100 μM % (%)
Only the number, expressed in %, is required.

Urokinase at 100 μM % for CC[C@H](C)[C@@H]1NC(=O)[C@H](CO)NC(=O)[C@H](C)NC(=O)[C@H]([C@@H](C)O)NC(=O)[C@@H]2CSSC[C@H](NC(=O)[C@H](CCC(N)=O)NC(=O)[C@@H]3CCCN3C(=O)[C@@H]3CCCN3C1=O)C(=O)N[C@@H](Cc1ccc(O)cc1)C(=O)N1CCC[C@@H]1C(=O)N1CCC[C@H]1C(=O)N[C@@H](CCc1ccccc1)C(=O)N2 [Ex. 103] (HELM PEPTIDE1{[O=C([C@H](CCc1ccccc1)N[*:1])[*:2]].C.T.A.S.I.P.P.Q.C.Y.[dP].P}$PEPTIDE1,PEPTIDE1,2:R3-10:R3|PEPTIDE1,PEPTIDE1,1:R1-13:R2$$$V2.0) ?
9.6

Further, for CCCCCCCC[C@@H]1NC(=O)[C@@H]2CCCN2C(=O)[C@H]2CCCN2C(=O)[C@H](Cc2ccc(O)cc2)NC(=O)[C@H](CCCCN)NC(=O)[C@H](CCC(N)=O)NC(=O)[C@@H]2CCCN2C(=O)[C@@H]2CCCN2C(=O)[C@H]([C@@H](C)CC)NC(=O)[C@H](CO)NC(=O)[C@H](C)NC(=O)[C@H]([C@@H](C)O)NC(=O)[C@H](CCC(=O)O)NC1=O [Ex. 156] (HELM PEPTIDE1{[CCCCCCCC[C@H](N[*:1])C(=O)[*:2]].E.T.A.S.I.P.P.Q.K.Y.[dP].P}$PEPTIDE1,PEPTIDE1,1:R1-13:R2$$$V2.0) ?
7

====

Molecular target: Chymase, from human skin (Homo sapiens)
Sequence (P23946 22-247): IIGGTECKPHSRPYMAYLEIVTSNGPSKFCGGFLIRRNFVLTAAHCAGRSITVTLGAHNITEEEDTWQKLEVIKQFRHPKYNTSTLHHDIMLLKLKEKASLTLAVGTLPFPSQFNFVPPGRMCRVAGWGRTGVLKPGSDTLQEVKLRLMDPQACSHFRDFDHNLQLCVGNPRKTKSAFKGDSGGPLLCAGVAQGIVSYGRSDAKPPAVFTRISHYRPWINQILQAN
Assay: Enzymatic assay, chymase
Where a SMILES comes first, the peptide text is derived from it.
readout name: Chymase at 100 μM %

compound	Chymase at 100 μM %
CC[C@H](C)[C@@H]1NC(=O)[C@@H]2CCCN2C(=O)[C@@H]2CCCN2C(=O)[C@H](CC(=O)O)NC(=O)[C@H](CO)NC(=O)[C@H](CCCCN)NC(=O)[C@H]([C@@H](C)O)NC(=O)[C@@H]2CSSC[C@H](NC1=O)C(=O)N[C@@H](CO)C(=O)N[C@H](C)C(=O)N1CCC[C@H]1C(=O)N[C@@H](Cc1ccccc1)C(=O)N2 [Ex. 49] (HELM PEPTIDE1{F.C.T.K.S.D.P.P.I.C.S.[dA].P}$PEPTIDE1,PEPTIDE1,2:R3-10:R3|PEPTIDE1,PEPTIDE1,1:R1-13:R2$$$V2.0)	0%

We now examine a further compound.
Chymase at 100 μM % for CC[C@H](C)[C@@H]1NC(=O)[C@H](CO)NC(=O)[C@H](C)NC(=O)[C@H]([C@@H](C)O)NC(=O)[C@@H]2CSSC[C@H](NC(=O)[C@H](CCC(N)=O)NC(=O)[C@@H]3CCCN3C(=O)[C@@H]3CCCN3C1=O)C(=O)N[C@@H](Cc1ccc(O)cc1)C(=O)N1CCC[C@@H]1C(=O)N1CCC[C@H]1C(=O)N[C@@H](CCc1ccccc1)C(=O)N2 [Ex. 103] (HELM PEPTIDE1{[O=C([C@H](CCc1ccccc1)N[*:1])[*:2]].C.T.A.S.I.P.P.Q.C.Y.[dP].P}$PEPTIDE1,PEPTIDE1,2:R3-10:R3|PEPTIDE1,PEPTIDE1,1:R1-13:R2$$$V2.0) ?
0%

====

Molecular target: Trypsin, from human pancreas (Homo sapiens)
Where a SMILES comes first, the peptide text is derived from it.
readout name: IC50 (nM)
Only the number, expressed in nM, is required.

Form entry - test system: Trypsin, from human pancreas (Homo sapiens); read-out: IC50; compound: CC[C@H](C)[C@@H]1NC(=O)[C@@H]2CCCN2C(=O)[C@H]2CCCN2C(=O)[C@H](CCCNC(=N)N)NC(=O)[C@@H]2CSSC[C@H](NC1=O)C(=O)N[C@@H]([C@@H](C)O)C(=O)N[C@@H](CCCCN)C(=O)N[C@@H](CO)C(=O)N[C@@H](CC(C)C)C(=O)N1CCC[C@H]1C(=O)N1CCC[C@H]1C(=O)N[C@@H](CCCCN)C(=O)N2 [Ex. 186] (HELM PEPTIDE1{I.C.T.K.S.L.P.P.K.C.R.[dP].P}$PEPTIDE1,PEPTIDE1,2:R3-10:R3|PEPTIDE1,PEPTIDE1,1:R1-13:R2$$$V2.0)
99

====

System: HELA cells (Acc57)
Assay: Cytotoxicity assay (MTT reduction), HELA cells
Format: cell-based
Conditions: Hela cells
Where a SMILES comes first, the peptide text is derived from it.
readout name: Cytotoxicity LC50/GI50 Hela cells (µM)
Only the number, expressed in µM, is required.

compound	value reported
CCCC[C@@H]1NC(=O)[C@@H]2CCCN2C(=O)[C@H]2CCCN2C(=O)[C@H](Cc2ccccc2Cl)NC(=O)[C@@H]2CSSC[C@H](NC1=O)C(=O)N[C@@H]([C@@H](C)O)C(=O)N[C@@H](C)C(=O)N[C@@H](CO)C(=O)N[C@@H]([C@@H](C)CC)C(=O)N1CCC[C@H]1C(=O)N1CCC[C@H]1C(=O)N[C@@H](CCC(N)=O)C(=O)N2 [Ex. 96] (HELM PEPTIDE1{[Nle].C.T.A.S.I.P.P.Q.C.[O=C([C@H](Cc1ccccc1Cl)N[*:1])[*:2]].[dP].P}$PEPTIDE1,PEPTIDE1,2:R3-10:R3|PEPTIDE1,PEPTIDE1,1:R1-13:R2$$$V2.0)	52
CCCC[C@@H]1NC(=O)[C@@H]2CCCN2C(=O)[C@@H]2CCCN2C(=O)[C@H](CC(=O)O)NC(=O)[C@H](CO)NC(=O)[C@H](CCCCN)NC(=O)[C@H]([C@@H](C)O)NC(=O)[C@@H]2CSSC[C@H](NC1=O)C(=O)N[C@@H](Cc1ccc(O)cc1)C(=O)N1CCC[C@@H]1C(=O)N1CCC[C@H]1C(=O)N[C@@H](C1CCCCC1)C(=O)N2 [Ex. 63] (HELM PEPTIDE1{[O=C([C@@H](N[*:1])C1CCCCC1)[*:2]].C.T.K.S.D.P.P.[Nle].C.Y.[dP].P}$PEPTIDE1,PEPTIDE1,2:R3-10:R3|PEPTIDE1,PEPTIDE1,1:R1-13:R2$$$V2.0)	87
CC[C@H](C)[C@@H]1NC(=O)[C@@H]2CCCN2C(=O)[C@H]2CCCN2C(=O)[C@H](CCCNC(=N)N)NC(=O)[C@@H]2CSSC[C@H](NC1=O)C(=O)N[C@@H]([C@@H](C)O)C(=O)N[C@@H](CCCCN)C(=O)N[C@@H](CO)C(=O)N[C@@H](CC(=O)O)C(=O)N1CCC[C@H]1C(=O)N1CCC[C@H]1C(=O)N[C@@H](CCC(N)=O)C(=O)N2 [Ex. 55] (HELM PEPTIDE1{I.C.T.K.S.D.P.P.Q.C.R.[dP].P}$PEPTIDE1,PEPTIDE1,2:R3-10:R3|PEPTIDE1,PEPTIDE1,1:R1-13:R2$$$V2.0)	94

We now examine a further compound.
Cytotoxicity LC50/GI50 Hela cells for CC[C@H](C)[C@@H]1NC(=O)[C@H](CO)NC(=O)[C@H](C)NC(=O)[C@H]([C@@H](C)O)NC(=O)[C@@H]2CSSC[C@H](NC(=O)[C@H](CCC(N)=O)NC(=O)[C@@H]3CCCN3C(=O)[C@@H]3CCCN3C1=O)C(=O)N[C@@H](Cc1ccc(O)cc1)C(=O)N1CCC[C@@H]1C(=O)N1CCC[C@H]1C(=O)N[C@@H](CCc1ccccc1)C(=O)N2 [Ex. 103] (HELM PEPTIDE1{[O=C([C@H](CCc1ccccc1)N[*:1])[*:2]].C.T.A.S.I.P.P.Q.C.Y.[dP].P}$PEPTIDE1,PEPTIDE1,2:R3-10:R3|PEPTIDE1,PEPTIDE1,1:R1-13:R2$$$V2.0) ?
47

====

Test system: Tryptase, from human lung
Assay: Enzymatic assay, tryptase
Conditions: at 100 μM
Where a SMILES comes first, the peptide text is derived from it.
readout name: Tryptase at 100 μM % (%)
Only the number, expressed in %, is required.

Tryptase at 100 μM % for CCCC[C@@H]1NC(=O)[C@@H]2CCCN2C(=O)[C@@H]2CCCN2C(=O)[C@H](CC(=O)O)NC(=O)[C@H](CO)NC(=O)[C@H](CCCCN)NC(=O)[C@H]([C@@H](C)O)NC(=O)[C@@H]2CSSC[C@H](NC1=O)C(=O)N[C@@H](CCCNC(=N)N)C(=O)N1CCC[C@@H]1C(=O)N1CCC[C@H]1C(=O)N[C@@H]([C@@H](C)CC)C(=O)N2 [Ex. 19] (HELM PEPTIDE1{I.C.T.K.S.D.P.P.[Nle].C.R.[dP].P}$PEPTIDE1,PEPTIDE1,2:R3-10:R3|PEPTIDE1,PEPTIDE1,1:R1-13:R2$$$V2.0) ?
85.2
